Target Of Assay: SRPK3 (human)
Assay Method Text: radiometric filter-binding kinase assay, Kinase HotSpot
Run Parameters: compound 0.5 µM; ATP 10 µM
Measurement Name: residual activity (%)
Your answer should be a plain number; it is taken to be in %.

Example entries and their recorded answers appear below.
record_smiles=C[C@@H]1CCN(C(=O)CC#N)C[C@@H]1N(C)c1ncnc2[nH]ccc12 target_of_assay="SRPK3 (human)" recorded_result=103
record_smiles=O=C1Nc2ccc(Br)cc2/C1=C\c1cc2c([nH]1)CCCC2 target_of_assay="SRPK3 (human)" recorded_result=77.8
record_smiles=N#Cc1c[nH]c2c[nH]/c(=N\Cc3cccnc3)cc2/c1=N\c1ccc(F)c(Cl)c1 target_of_assay="SRPK3 (human)" recorded_result=96.4

Q: Please report the recorded residual activity for Cc1nc(-c2ccccc2)c(-c2ccncc2)o1 .
Result: 103

Q: Please report the recorded residual activity for N#C/C(=C\c1ccc(O)c(O)c1)C(=O)NCc1ccccc1 .
Result: 93.9

Q: Please report the recorded residual activity for Ic1cccc(CSc2nnc(-c3ccncc3)o2)c1 .
Result: 101

Q: Please report the recorded residual activity for Cc1cccc(-c2nc(C(C)(C)C)[nH]c2-c2ccc3c(c2)OCO3)n1 .
Result: 95.1

Q: Please report the recorded residual activity for COc1ccc(S(=O)(=O)N(CCO)c2ccccc2CN(C)C/C=C/c2ccc(Cl)cc2)cc1 .
Result: 97.3

Q: Please report the recorded residual activity for COc1ccc(C(=O)Nc2sc3c(c2C(N)=O)CCCC3)cc1OC .
Result: 92

Q: Please report the recorded residual activity for CO[C@@H]1[C@H](N(C)C(=O)c2ccccc2)C[C@H]2O[C@]1(C)n1c3ccccc3c3c4c(c5c6ccccc6n2c5c31)C(=O)NC4 .
Result: 93.3

###

Target Of Assay: UniProtKB Q09013
Sequence (Q09013 whole entry, looked up): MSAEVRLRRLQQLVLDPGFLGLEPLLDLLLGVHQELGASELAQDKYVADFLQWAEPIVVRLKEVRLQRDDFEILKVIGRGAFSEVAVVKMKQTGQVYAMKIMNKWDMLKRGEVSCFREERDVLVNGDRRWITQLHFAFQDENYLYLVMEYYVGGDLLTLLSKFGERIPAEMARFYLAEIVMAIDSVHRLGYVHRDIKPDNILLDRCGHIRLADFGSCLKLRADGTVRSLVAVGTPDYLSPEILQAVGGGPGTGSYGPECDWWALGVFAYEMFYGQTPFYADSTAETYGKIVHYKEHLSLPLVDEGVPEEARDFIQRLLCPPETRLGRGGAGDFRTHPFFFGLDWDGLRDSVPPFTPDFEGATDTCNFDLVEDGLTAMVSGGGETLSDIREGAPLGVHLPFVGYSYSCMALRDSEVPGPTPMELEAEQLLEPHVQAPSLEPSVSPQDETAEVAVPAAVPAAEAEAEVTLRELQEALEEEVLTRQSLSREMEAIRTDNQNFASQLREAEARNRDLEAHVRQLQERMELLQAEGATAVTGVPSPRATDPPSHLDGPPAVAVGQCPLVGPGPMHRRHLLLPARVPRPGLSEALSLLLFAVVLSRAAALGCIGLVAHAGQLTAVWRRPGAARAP
Assay Method Text: radiometric filter-binding kinase assay, Kinase HotSpot
Run Parameters: compound 0.5 µM; ATP 10 µM
Measurement Name: residual activity (%)
Your answer should be a plain number; it is taken to be in %.

Example entries and their recorded answers appear below.
record_smiles=Cc1cccc(-c2nc(C(C)(C)C)[nH]c2-c2ccc3c(c2)OCO3)n1 measurement_name="residual activity" recorded_result=102
record_smiles=COc1ccc(S(=O)(=O)N(CCO)c2ccccc2CN(C)C/C=C/c2ccc(Cl)cc2)cc1 measurement_name="residual activity" recorded_result=105
record_smiles=O=C1c2ccccc2-c2nc3nnnn3nc21 measurement_name="residual activity" recorded_result=84.8
record_smiles=CN(C)S(=O)(=O)c1ccc2c(c1)/C(=C/c1cc3c([nH]1)CCCC3)C(=O)N2 measurement_name="residual activity" recorded_result=102

Q: Please report the recorded residual activity for Cc1nc(-c2ccccc2)c(-c2ccncc2)o1 .
Result: 103

###

Target Of Assay: GSK3B (human) (UniProt P49841)
Sequence (P49841 whole entry, looked up): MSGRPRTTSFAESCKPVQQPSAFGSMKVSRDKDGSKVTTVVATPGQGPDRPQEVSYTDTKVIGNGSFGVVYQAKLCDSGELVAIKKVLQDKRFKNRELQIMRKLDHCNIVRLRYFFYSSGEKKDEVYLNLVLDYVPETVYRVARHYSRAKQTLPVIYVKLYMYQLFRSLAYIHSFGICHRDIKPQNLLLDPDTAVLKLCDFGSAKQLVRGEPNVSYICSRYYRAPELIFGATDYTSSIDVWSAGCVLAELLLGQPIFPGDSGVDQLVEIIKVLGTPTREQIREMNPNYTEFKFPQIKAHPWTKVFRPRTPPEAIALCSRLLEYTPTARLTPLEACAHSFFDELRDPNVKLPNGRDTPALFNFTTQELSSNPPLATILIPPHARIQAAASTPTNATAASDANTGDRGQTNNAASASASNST
Assay Method Text: radiometric filter-binding kinase assay, Kinase HotSpot
Run Parameters: compound 0.5 µM; ATP 10 µM
Measurement Name: residual activity (%)
Your answer should be a plain number; it is taken to be in %.

Example entries and their recorded answers appear below.
record_smiles=Cn1c2ccccc2c2c3c(c4c5ccccc5n(CCC#N)c4c21)CNC3=O measurement_name="residual activity" recorded_result=38.9
record_smiles=CN(C)CCCn1cc(C2=C(c3c[nH]c4ccccc34)C(=O)NC2=O)c2ccccc21 measurement_name="residual activity" recorded_result=7.01
record_smiles=Fc1ccc(-c2nc3n(c2-c2ccncc2)CCS3)cc1 measurement_name="residual activity" recorded_result=105
record_smiles=COc1ccc(S(=O)(=O)N(CCO)c2ccccc2CN(C)C/C=C/c2ccc(Cl)cc2)cc1 measurement_name="residual activity" recorded_result=102

Q: Please report the recorded residual activity for Cc1nc(-c2ccccc2)c(-c2ccncc2)o1 .
Result: 105

Q: Please report the recorded residual activity for COc1cc(Nc2c(C#N)cnc3cc(OCCCN4CCN(C)CC4)c(OC)cc23)c(Cl)cc1Cl .
Result: 99.9

Q: Please report the recorded residual activity for C[C@@H]1CCN(C(=O)CC#N)C[C@@H]1N(C)c1ncnc2[nH]ccc12 .
Result: 99.6

Q: Please report the recorded residual activity for Ic1cccc(CSc2nnc(-c3ccncc3)o2)c1 .
Result: 59.8

Q: Please report the recorded residual activity for O=C1c2ccccc2-c2nc3nnnn3nc21 .
Result: 83.5

Q: Please report the recorded residual activity for O=C(c1cc2cc(O)ccc2[nH]1)c1cc2cc(O)ccc2[nH]1 .
Result: 78.7

Q: Please report the recorded residual activity for CN(C)S(=O)(=O)c1ccc2c(c1)/C(=C/c1cc3c([nH]1)CCCC3)C(=O)N2 .
Result: 95.6

Q: Please report the recorded residual activity for COc1ccc(C(=O)Nc2sc3c(c2C(N)=O)CCCC3)cc1OC .
Result: 97.7

###

Target Of Assay: WEE1 (human) (UniProt P30291)
Sequence (P30291 whole entry, looked up): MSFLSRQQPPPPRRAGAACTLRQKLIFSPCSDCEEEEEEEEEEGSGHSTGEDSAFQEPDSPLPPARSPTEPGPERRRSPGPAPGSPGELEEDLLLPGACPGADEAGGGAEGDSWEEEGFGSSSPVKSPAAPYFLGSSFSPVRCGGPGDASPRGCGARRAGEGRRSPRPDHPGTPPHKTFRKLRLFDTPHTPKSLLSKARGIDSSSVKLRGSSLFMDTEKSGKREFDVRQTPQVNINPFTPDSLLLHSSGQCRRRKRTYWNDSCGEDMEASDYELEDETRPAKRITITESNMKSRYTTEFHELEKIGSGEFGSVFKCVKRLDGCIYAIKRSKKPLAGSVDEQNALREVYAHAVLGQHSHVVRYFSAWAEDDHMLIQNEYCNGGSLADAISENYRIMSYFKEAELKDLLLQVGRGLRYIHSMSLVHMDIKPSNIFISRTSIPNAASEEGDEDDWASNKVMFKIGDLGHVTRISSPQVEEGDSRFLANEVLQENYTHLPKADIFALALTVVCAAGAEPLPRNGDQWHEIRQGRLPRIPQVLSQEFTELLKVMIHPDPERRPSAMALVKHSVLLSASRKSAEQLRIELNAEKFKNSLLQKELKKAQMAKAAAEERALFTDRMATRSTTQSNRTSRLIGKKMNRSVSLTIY
Assay Method Text: radiometric filter-binding kinase assay, Kinase HotSpot
Run Parameters: compound 0.5 µM; ATP 10 µM
Measurement Name: residual activity (%)
Your answer should be a plain number; it is taken to be in %.

Example entries and their recorded answers appear below.
record_smiles=c1ccc2c(-c3ccncc3)c[nH]c2c1 recorded_result=89.3
record_smiles=COc1ccc(C(=O)Nc2sc3c(c2C(N)=O)CCCC3)cc1OC recorded_result=92.3

Q: Please report the recorded residual activity for CC(C)(C)c1cc(C=C(C#N)C#N)cc(Br)c1O .
Result: 90.9

Q: Please report the recorded residual activity for N#C/C(=C\c1ccc(O)c(O)c1)C(=O)NCc1ccccc1 .
Result: 89.9

Q: Please report the recorded residual activity for Cc1nc(-c2ccccc2)c(-c2ccncc2)o1 .
Result: 91.9

Q: Please report the recorded residual activity for Fc1ccc(-c2nc3n(c2-c2ccncc2)CCS3)cc1 .
Result: 92.2

Q: Please report the recorded residual activity for CO[C@@H]1[C@H](N(C)C(=O)c2ccccc2)C[C@H]2O[C@]1(C)n1c3ccccc3c3c4c(c5c6ccccc6n2c5c31)C(=O)NC4 .
Result: 89.3

###

Target Of Assay: GRK7 (human)
Assay Method Text: radiometric filter-binding kinase assay, Kinase HotSpot
Run Parameters: compound 0.5 µM; ATP 10 µM
Measurement Name: residual activity (%)
Your answer should be a plain number; it is taken to be in %.

Q: So what residual activity did Ic1cccc(CSc2nnc(-c3ccncc3)o2)c1 get with GRK7 (human)?
Result: 112

###

Target Of Assay: MAPK3 (human) (UniProt P27361)
Sequence (P27361 whole entry, looked up): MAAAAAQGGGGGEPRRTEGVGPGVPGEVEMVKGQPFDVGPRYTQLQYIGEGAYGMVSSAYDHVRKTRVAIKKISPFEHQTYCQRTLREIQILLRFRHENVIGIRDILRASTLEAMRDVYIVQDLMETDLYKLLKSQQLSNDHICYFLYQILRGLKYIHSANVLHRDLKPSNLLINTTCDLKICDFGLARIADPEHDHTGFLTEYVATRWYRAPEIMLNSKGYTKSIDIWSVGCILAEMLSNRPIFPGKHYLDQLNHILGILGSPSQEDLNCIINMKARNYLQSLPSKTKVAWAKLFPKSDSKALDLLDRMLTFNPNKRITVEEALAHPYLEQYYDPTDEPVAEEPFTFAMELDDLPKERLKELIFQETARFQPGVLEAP
Assay Method Text: radiometric filter-binding kinase assay, Kinase HotSpot
Run Parameters: compound 0.5 µM; ATP 10 µM
residual activity by entry:
Your answer should be a plain number; it is taken to be in %.

Example entries and their recorded answers appear below.
record_smiles=CCCCc1c(-c2ccc(OC)cc2)[nH]c2nccnc12 recorded_result=111
record_smiles=CN(C)c1ccc(/C=C2\C(=O)Nc3ccccc32)cc1 recorded_result=102
record_smiles=COc1ccc2c(c1)/C(=C/c1cnc[nH]1)C(O)=N2 recorded_result=87.2
record_smiles=COc1cc(Nc2c(C#N)cnc3cc(OCCCN4CCN(C)CC4)c(OC)cc23)c(Cl)cc1Cl recorded_result=98.9
record_smiles=Cn1c2ccccc2c2c3c(c4c5ccccc5n(CCC#N)c4c21)CNC3=O recorded_result=72.6
record_smiles=c1ccc2c(-c3ccncc3)c[nH]c2c1 recorded_result=98.9
record_smiles=Ic1cccc(CSc2nnc(-c3ccncc3)o2)c1 recorded_result=95.8
record_smiles=O=C1C(Cl)=C(N2C(=O)CCC2=O)C(=O)c2ccccc21 recorded_result=99.3
record_smiles=CO[C@@H]1[C@H](N(C)C(=O)c2ccccc2)C[C@H]2O[C@]1(C)n1c3ccccc3c3c4c(c5c6ccccc6n2c5c31)C(=O)NC4 recorded_result=88.4

Read the next record carefully.
Q: Please report the recorded residual activity for Cc1cccc(-c2nc(C(C)(C)C)[nH]c2-c2ccc3c(c2)OCO3)n1 .
Result: 111

###

Target Of Assay: MERTK (human) (UniProt Q12866)
Sequence (Q12866 whole entry, looked up): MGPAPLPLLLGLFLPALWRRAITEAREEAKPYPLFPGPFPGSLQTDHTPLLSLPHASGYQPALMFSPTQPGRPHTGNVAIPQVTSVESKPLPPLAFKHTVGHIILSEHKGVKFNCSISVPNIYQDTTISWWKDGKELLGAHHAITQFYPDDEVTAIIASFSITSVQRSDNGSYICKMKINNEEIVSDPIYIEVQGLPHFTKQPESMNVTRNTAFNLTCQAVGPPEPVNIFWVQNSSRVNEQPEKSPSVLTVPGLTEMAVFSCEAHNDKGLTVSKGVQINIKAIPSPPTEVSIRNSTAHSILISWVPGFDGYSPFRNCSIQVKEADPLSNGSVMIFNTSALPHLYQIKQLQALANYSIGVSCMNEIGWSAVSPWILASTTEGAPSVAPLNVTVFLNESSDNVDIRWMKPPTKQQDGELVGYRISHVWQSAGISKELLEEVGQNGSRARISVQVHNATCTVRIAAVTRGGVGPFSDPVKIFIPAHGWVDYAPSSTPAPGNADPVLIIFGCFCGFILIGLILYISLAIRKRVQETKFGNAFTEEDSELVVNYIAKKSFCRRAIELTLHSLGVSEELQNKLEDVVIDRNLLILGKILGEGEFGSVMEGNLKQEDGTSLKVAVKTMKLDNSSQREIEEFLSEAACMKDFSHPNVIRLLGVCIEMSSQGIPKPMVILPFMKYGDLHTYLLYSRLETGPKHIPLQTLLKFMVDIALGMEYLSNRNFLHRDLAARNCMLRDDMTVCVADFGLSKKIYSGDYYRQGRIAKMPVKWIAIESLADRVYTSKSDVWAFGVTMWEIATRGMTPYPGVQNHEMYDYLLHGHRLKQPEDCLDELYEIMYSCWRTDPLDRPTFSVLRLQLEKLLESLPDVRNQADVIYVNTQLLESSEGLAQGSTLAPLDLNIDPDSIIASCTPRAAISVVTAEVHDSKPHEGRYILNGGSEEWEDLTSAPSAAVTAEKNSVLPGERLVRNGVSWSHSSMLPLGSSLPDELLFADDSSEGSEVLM
Assay Method Text: radiometric filter-binding kinase assay, Kinase HotSpot
Run Parameters: compound 0.5 µM; ATP 10 µM
Binary call on residual activity with cut-off 90%: strictly below means true (1), and equality or higher means false (0).

Please review the following examples before continuing.
record_smiles=CN(C)S(=O)(=O)c1ccc2c(c1)/C(=C/c1cc3c([nH]1)CCCC3)C(=O)N2 target_of_assay="MERTK (human) (UniProt Q12866)" cat="true (1)"
record_smiles=Ic1cccc(CSc2nnc(-c3ccncc3)o2)c1 target_of_assay="MERTK (human) (UniProt Q12866)" cat="false (0)"
record_smiles=COc1ccc(C(=O)Nc2sc3c(c2C(N)=O)CCCC3)cc1OC target_of_assay="MERTK (human) (UniProt Q12866)" cat="true (1)"

Q: I wonder whether Cn1c2ccccc2c2c3c(c4c5ccccc5n(CCC#N)c4c21)CNC3=O has residual activity below 90%. Can you tell?
Result: true (1)

Q: I wonder whether COc1ccc(S(=O)(=O)N(CCO)c2ccccc2CN(C)C/C=C/c2ccc(Cl)cc2)cc1 has residual activity below 90%. Can you tell?
Result: false (0)

Q: I wonder whether COc1cc(Nc2c(C#N)cnc3cc(OCCCN4CCN(C)CC4)c(OC)cc23)c(Cl)cc1Cl has residual activity below 90%. Can you tell?
Result: true (1)

Q: I wonder whether O=C1c2ccccc2-c2nc3nnnn3nc21 has residual activity below 90%. Can you tell?
Result: false (0)

Q: I wonder whether CS(=O)(=O)CCNCc1ccc(-c2ccc3ncnc(Nc4ccc(OCc5cccc(F)c5)c(Cl)c4)c3c2)o1 has residual activity below 90%. Can you tell?
Result: false (0)

Q: I wonder whether COc1ccc2c(c1)/C(=C/c1cnc[nH]1)C(O)=N2 has residual activity below 90%. Can you tell?
Result: true (1)

Q: I wonder whether O=C1NC(=O)c2c1c1c3ccccc3[nH]c1n1cncc21 has residual activity below 90%. Can you tell?
Result: true (1)

Q: I wonder whether CN(C)c1ccc(/C=C2\C(=O)Nc3ccccc32)cc1 has residual activity below 90%. Can you tell?
Result: false (0)

Q: I wonder whether N#Cc1c[nH]c2c[nH]/c(=N\Cc3cccnc3)cc2/c1=N\c1ccc(F)c(Cl)c1 has residual activity below 90%. Can you tell?
Result: true (1)

Q: I wonder whether COc1ccc(Cl)cc1NC(=O)Nc1cc(C)nc2ccccc12 has residual activity below 90%. Can you tell?
Result: false (0)

Q: I wonder whether O=C1Nc2ccc(Br)cc2/C1=C\c1cc2c([nH]1)CCCC2 has residual activity below 90%. Can you tell?
Result: true (1)

Q: I wonder whether c1ccc2c(-c3ccncc3)c[nH]c2c1 has residual activity below 90%. Can you tell?
Result: false (0)

Q: I wonder whether Cc1cncc2cccc(S(=O)(=O)N3CCCN(C(=O)CN)C[C@H]3C)c12 has residual activity below 90%. Can you tell?
Result: false (0)
